- Method: yeast display, Sf9 membrane polyspecificity reagent, FACS + sequencing; frameworks hold sequencing errors
Test readout: polyreactivity (PSR sort gate)

1. QVQLVESGGGLVQAGGSLRLSCAASGSTFSFNAMGWYRQAPGKERELVAAITYSGGDTYYADSVKGRFTISRDNAKNTVYLQMNSLKPEDTAVYYCAAKIPRPYAMDYWGQGTQVTVSS
low polyreactivity
2. QVQLVESGGGLVQAGGSLRLSCAASGSMFYYYAMGWYRQPPGKERELVAAISSGGVGSTTYADSVKGRFTISRDNAKNTVYLQMNSLKPEDTAVYYCNADRPGYFYFYFNYWGQGTQVTVSS
high polyreactivity
3. QVQLVESGGGLVQAGGSLRLSCAASGRIFYANAMGWYRQAPGKERELVASISARGGSTYYADSVKGRFTISRDNAKNTVYLQMNSLKPEDTAVYYCAKRDTFKPYASLYDYWGQGTQVTVSS
high polyreactivity
4. QVQLVESGGGLVQAGGSLRLSCAASGRIFDENAMGWYRQAPGKERELVATISSSGVSTSYADSVKGRFTISRDNAKNTVYLQMNSLKPEDTAVYYCNAGYRRRYKFVYWGQGTQVTVSS
low polyreactivity
5. QVLLVESGGGIVQAGGSLRLSCAASGIIFYVNAMGWYRQAPGKERELVAAITFGGDSTYYADSVKGRFTISRDNAKNTVYLQMNSLKPEDTAVYYCATDGDPAYPEMEYWGQGTQVTVSS
low polyreactivity
6. QVQLVESGGGLVQAGGSLRLSCAASGRTFYYYAMGWYRQAPGKERELVAAISWSGGSTYYADSVKGRFTISRDNAKNTVYLQMNSLKPEDTAVYYCAARLPENSFGLYYYWGQGTQVTVSS
high polyreactivity
7. QVQLVESGGGLVQAGGSLRLICAPSGRITLRYAIGWYRQAPRKERDFVAAITVSGGSTYYADSVKGRFTISRDNAKNTVYLMMNRLKPEDTAVYYCAVRQKTQYGSKHDYWGQGTQVTVSS
high polyreactivity
8. QVQLVESGGGLDQAGGSLRLSCAASGRTINGNTMGCYRQAPGKQRELVAVIDWSGGSTYYADSVKGRFTISRDNAKNTVYLQMNSLKPEDTAVYYCNAETRDPILYGEYDYWGQGTQVTVSS
low polyreactivity
9. QVQLVESGGGLFQAGGSLRLSCAASGFTIFLNAMGWYRQAPGKERELVAAITVSGSSTYYADSVKGRFTISRDNAKNTVYLQMNSLKPEDTAVYYCNAEIYSPYYTYDYWGQGTQVTVSS
low polyreactivity
10. QVQLVESGGGLVQAGGSLRLICAASGITFYYYAMGWYRQAPGKERELVAAISTRSGSTYYADSVKGRFTISRDNAKNTVYLEMNSLKPEDTAVYYCAARYRSAGHRYDYWGQGTQVTVSS
high polyreactivity

// moving on: another record for polyreactivity (PSR sort gate)
Ask: Fill in the blank: the reported polyreactivity (PSR sort gate) of QVQHVESGGVLVQAGGSLRLSCAASGSTFGGYAMGWYRQAPGKERELVASISRRGGSTYYADSVKGRFTLSRDNAKNTFYFHMNSLKPEDTAVYYCNAAFLRQVWDGYNYWGQGSQVTVSS is ____.
Reply: high polyreactivity

====

- Method: yeast display, Sf9 membrane polyspecificity reagent, FACS + sequencing; frameworks hold sequencing errors
Test readout: polyreactivity (PSR sort gate)

Answered examples (4):
1. QVQHVESGGGLVQAGGSLRLSCAASGFTFNYYAMGWYRQAPGKERELVAAITSSGGSTYYADSVKGRFTISRDNAKNTVYLQMNSLKPEDTAVYYCNAAVYAHRYIDGFDYWGQGTQVTVSS
high polyreactivity
2. QVQLVESGGGLVQAGGSLRLSCAASGIIFHLYAMGWYRPAPGKERELVAAISWNGSSTYYADSVKGRFTISRDNAKNTVYLQMNSLKPEDTAVYYCAASYGYFEDYGYWGQGTQVTVSS
low polyreactivity
3. QVQLVESGGGLVQAGGSLRLSCAASGRSFVSYAMGWYRQAPGKERELVASITSSDGTNYADSVKGRFTISRDNEKNTVYLQMNSLKPEDTAVFYCNKDGFTTDRIGPTSDYWGQGTQVTVSS
low polyreactivity
4. QVQLQESGGGLVQAGGSLRLSCAASGSIFLFYTMGWYRQAPVKEREFVAGITLGTTTYNADSVKGRFTISRDNVKNTVYLQMNSLKPEDTAVYYCNAVGDARYNYWGQGTQVTVSS
high polyreactivity

Switching to the query record.
Ask: Any idea what polyreactivity (PSR sort gate) was measured for QVQLVESGGGLVQAGGSLRLTSAGSGRIFVPYAMGCYRQAPGKERELVATITFGGGRTYYADSVKGRFTISRDNAKTTVFLQMNSLKPEDTAVYYCNAEGWYSVEYDYWGQGTQVTVSS ?
Reply: low polyreactivity

====

- Method: yeast display, Sf9 membrane polyspecificity reagent, FACS + sequencing; frameworks hold sequencing errors
Test readout: polyreactivity (PSR sort gate)

1. QVQLVESGGGLVQAGGSLRLSCAASGRTCAAYAMGWYRQAPGKERELVAAISIGGSTNYADSVKGRFTISRDNAKNTVYLQLNSLKPEDTAVYYCAAGTWAVSKYLEWLEFYYWGQGTQVTVSS
high polyreactivity
2. QVQLVESGGGLVQAGGSLRLSCAASGSIFRTYAMGWYRQAPGKERELVAAISQSGGSTYYADSVKGRFTISRDNAKNTVYLQMNSLKPEDTAVYYCNKYFTRRQSAVSLSPGKFDYWGQGTQVTVSS
high polyreactivity

====

- Method: yeast display, Sf9 membrane polyspecificity reagent, FACS + sequencing; frameworks hold sequencing errors
Test readout: polyreactivity (PSR sort gate)

Field: example entries. Status: answers known.
1) QVQLVESGGGLVQAGGSLRLSCAASGSIFIYNAMGWYRQAPGKERELVAAISSSGGSTYYADSVKGRITISRDNAKNTVYLQMNSLKPEPTAVYYCAARTYYVRGLGGRPGMDYCGQGTQVTVSS
low polyreactivity
2) QVQLVESGGGLVQAGGSLRLSCAASGSIFVGYAMGWYRQAPGKERELVAAISSNGGSTYYADSVKGRFTISRDNAKNTVYLQMNSLKPEDTAVYYCAAGVRRVYASGHGAYGYWGQGTQVTVSS
low polyreactivity
3) QVQLVESGGGLVQAGGSLRLSCAASGSTFVVNVMGWYRQAPGNEMELVAAITYRSGSTYYADSVKGRFTISRDNEKNTVYLQMNSLNPEDSAVYYCAAGYYSRYYEAFEYYYWGQGTQVTVSS
high polyreactivity
4) QVQLVESGGGLVQAGGSLRLSCAASGFTFYRYAMGWYRQAPGKERELVATISASGASTYYADSVKGRFSISRDNAKNNVYLQMNRLKPEDTAVYYCAVRYKSWYGFNYWGQGTQVTVSS
high polyreactivity
5) QVKLVDSGGGLVQAGGSLRLTCAASGITFDKYAMGWYRQAPGKERELVAAITKSSGSTYYADSVKGRFTISRVNAKNTDYLQMNSLKAEDTAVYYCAAGIVYCEYFWGQGTQVTVSS
high polyreactivity
6) QVQLVESGGGLVQAGGSLRLRCAASGSIFQPYAMGWYRQAPGKERELVAAITNGGSTYYADSVKGRFTISRDNATNTVYLQMNSLKPEDTAVYYCAADVQSSHEYDYWGQGTQVTVSS
low polyreactivity
7) QVQLVESGGGLVQAGGSLRLSCAASGLNLKRYAMGCYTQAPGKERELVAAISKSGGSTYYADSVKGRFTISRDNAKNTVYLQMNSLKPEDTAVYYCAADSYNLWDDYWGQGTQVTVSS
low polyreactivity
8) QVQLVESGGGLVQAGGSLRLSCAASGSTFGLNAMGWYRQAPGKERELVAAITRSDITNYADSVKGRFTISRDNAKNTVYLQMNSLKPEDTAVYYCNKTPDRHRRYFGYGYWGHGTQVTVSS
low polyreactivity
9) QVQLVESGGGLFQAGGSLRLSCAASGSTFVANAMGWYRQAPGKERELVAAISSSGGSTYYADSVKGRFTISRDIAKNTVYLQMNSLKHDDTAVYYCNARSISRKKGYPPQRRDGYWGQGTQVTVSS
high polyreactivity
10) QVQLVESRGGLVQAGGSLRLSCAASGRIFHYYVMGWYRQAPGKERELVARITFNGGGTYYADSVKGRFTISRDIAKNTVYLQMNRLKPEDTAVYYCNARYPWRDWEDDYWGQGTQVTVSS
low polyreactivity

Ask: I have this sequence here, QVQLLESGGALVQAVGSLRLSCMASGSILGDRMSWYRQAPGKEHELVATIYDGGITYYADSMKGRFTISRDNAIHTVYLQMNSLRPEDTAVYYCGASLEGYRYNVYCGQGTQVTVSS , and I need its recorded polyreactivity (PSR sort gate).
Reply: low polyreactivity

Ask: What value of polyreactivity (PSR sort gate) has been reported for the following sequence? QVQLVESGGGLVQAGGSLRLSCAASGSTFVRNAMGWYRQAPGKERELVAGISTGDNTYYADSVKGRFTISRDNAKNTVYLQMNSLKPEDTAVYYCNADVYTEYDYWGQGTQVTVSS
Reply: low polyreactivity

Ask: What value of polyreactivity (PSR sort gate) has been recorded for this entry: QVQLVESGGGLVQAGGSLRLSCAASGSIFGLYAMGWYIQAPGKERELVATISKSGVSTYYADSVKGRFTISRDNEKNTVYLQMKSLKPEVTAVYYCNADISRDNDFDYWGQGTQVTVSA
Reply: low polyreactivity

Ask: Quick one: polyreactivity (PSR sort gate) of QVQLVETGGGLVQAGGSLRISCAASGRIFGWYAMGWYRQAPGKERELVAGINYGGGRTYYADSVKGRFTISRDNAKNTVYLQMNSLKPEDTAVYYCAAGISGHYYWGQGTQVTVSS ?
Reply: high polyreactivity

Ask: Give the measured polyreactivity (PSR sort gate) of QDQLVESGGGLVQAGGSLRLSCAASGIIFPQYTMGWYRQAPGKERELVAVITSGGSTYYADSVKGRFTISRDNAKNTVYLQMNSLKTEDTAVYYCAADAFYKFDYWGQGTQVTVSS .
Reply: high polyreactivity

Ask: Fill in the blank: the reported polyreactivity (PSR sort gate) of QVQLVESGGGLDQAGGSLRLSCAASGSTFVSNAMGWYRQAPGKERELVAAISKSGGSTYYADSVKGRFTISRDNAKNTVYLQMNSLKPEDTAVYYCAKYNAKSFYGQYDYWGQGTQVTVSS is ____.
Reply: high polyreactivity

Ask: Look up polyreactivity (PSR sort gate) for this sequence: QVQLVESGGGLVQAGGSLRLSCAASGGIFQLNAMGWYSQAPGKERELVAAISGSGGSTYYADSVKGRFTISRDNAKNTVYLQMNSLKPEDTAVYYCAVRLTITDYDYWGQGTQVTVSS
Reply: low polyreactivity

Ask: Any idea what its polyreactivity (PSR sort gate) is? The sequence is QVQLVESGGGLVQAGGSLRLSCAASGSIFASYAMGWYRQAPGKERELVAAISRSGTSTRYADSVKGRFTISRDNAKNTVYLQMNSLKPEDTAVYYCAARWYVFFRKYDYWGQGTQVTVSS
Reply: high polyreactivity

Ask: Param item = QVHLVESGGGLVQAGGSLRLSCAASGSIFITYAMVWYRQAPGKERELVAAIRDSGDRTYYADSVKGRFTISRDNAKNTVYLQMNSLKPEDTAVYYCNARWQEPLKYDYWGQGTKVTVSS ; retrieve measured polyreactivity (PSR sort gate).
Reply: low polyreactivity

Ask: I'd like to know its polyreactivity (PSR sort gate). The sequence in question is QVQLVESGGGLVQAAGSLRLSCAASGFTIAHYAMGRYSHAPGKERELVAGISRSGGSTYYADSVKGRFTISRDNAKNTVYLQMNILKPEDTAVYYCATVTYLKRVRYQSGYDSWGQGTQVTVSS
Reply: low polyreactivity

Ask: // query polyreactivity (PSR sort gate) value for entry QVQLVESGGGLGQAGGSLRLSCAASGRTFGDYVMGWYRQAPGKEREFVAAITDSGDRTYYADSVKGRFTISRDNAKNTVYLQMNSLKPEDTAVYYCNDEIWDWYYWYAYWGQGTQVTVSS
Reply: high polyreactivity

Provenance of the data: the nanobody polyreactivity screen of Harvey et al. (2022)
